- measurement.target: human BRD4 bromodomain II (Homo sapiens)
- Construct: human BRD4 bromodomain II [based on Genbank NM_058243, residues 349-460]; host or cells: E. coli
- test.protocol: Bromodomain binding assay (AlphaScreen), BRD4 BDII
- run.parameters: AlphaScreen assay, Table C2; read-out: BRD4 BDII IC50
parameter.measured: IC50

[in] What does the data say about its IC50? Entry: Cn1ccn(-c2ccc(-c3cc(F)cc(-c4ccnc(N5CCC(C)(NC(=O)OC(C)(C)C)C5)c4)c3O)cc2Cl)c1=O (stereo not drawn)
[out] 10 to 100 nM

[in] Consider the compound O=C1CCCN1c1ccc(-c2cccc(-c3ccnc(N4CC5(CNC5)C4)c3)c2O)cc1Cl and give its measured IC50.
[out] 10 to 100 nM

[in] Value lookup for IC50; key = CC(=O)Nc1ccc(-c2cccc(-c3cc(N4CCNCC4)no3)c2O)cc1
[out] 10 to 100 nM

[in] State the recorded IC50 for this entry: CN1CCN(c2c(F)cc(-c3cc(F)cc(-c4ccnc(N5CCNCC5)c4)c3O)cc2Cl)C1=O
[out] 10 to 100 nM

[in] Item under review: C[C@@H]1CN(c2cc(-c3cc(F)cc(-c4ccc(N5CCN(C)C5=O)c(Cl)c4)c3O)cn(C)c2=O)CCN1 . Reported IC50?
[out] 1 to 10 nM

[in] Form field: reported IC50 of Cc1cc(-c2cc(-c3ccn[nH]3)cc(N3CCNCC3)c2)c(O)c(-c2ccc(-n3ccn(C)c3=O)c(Cl)c2)c1
[out] 1 to 10 nM

[in] Need IC50, item CC(=O)Nc1ccc(-c2cccc(-c3ccc(F)c(N4CCNCC4)c3)c2O)cc1F
[out] 1 to 10 nM

[in] Please look up its IC50: Cn1ccn(-c2ccc(-c3cc(F)cc(-c4ccnc(N5CCN[C@H](C(C)(C)O)C5)c4)c3O)cc2Cl)c1=O
[out] 0.01 to 1 nM

[in] Any idea what IC50 was measured for CN1CCN(c2ccc(-c3cc(F)cc(-c4ccc(=O)n(C5CCNCC5)c4)c3O)cc2Cl)C1=O ?
[out] 1 to 10 nM

[in] State the recorded IC50 for this entry: CC(=O)Nc1ccc(-c2cccc(-c3ccc(NC(C)=O)c(OC(C)C)c3)c2O)cc1F
[out] > 100 nM

[in] May I ask what IC50 has been recorded for Cn1ccn(-c2ccc(-c3cc(F)cc(-c4ccnc(N5CCC[C@H](CN)C5)c4)c3O)cc2Cl)c1=O ?
[out] 1 to 10 nM

[in] Quick one: IC50 for CC(=O)Nc1ccc(-c2cc(F)cc(-c3cnn(C4CCN(C)CC4)c3)c2O)cc1 ?
[out] > 100 nM

[in] What measured IC50 goes with Cn1ccn(-c2ccc(-c3cc(F)cc(-c4ccnc(N5CCNC(C)(C)C5)c4)c3O)cc2Cl)c1=O ?
[out] 0.01 to 1 nM

[in] What value of measured IC50 is listed for CC(=O)Nc1ccc(-c2cccc(-c3cccc(Oc4ccccc4)c3)c2O)cc1F ?
[out] > 100 nM

[in] Quick one: IC50 for Cn1ccn(-c2ccc(-c3cc(F)cc(-c4cncc(N5CCNC6(CC6)C5)c4)c3O)cc2Cl)c1=O ?
[out] 0.01 to 1 nM

Sourced from patent US20250179059A1
